Quick reference: Kd of the listed items.
# measurement.target: T1, soluble FGFR3c receptor protein (human, UniProt P22607 141-372)
# T1 sequence: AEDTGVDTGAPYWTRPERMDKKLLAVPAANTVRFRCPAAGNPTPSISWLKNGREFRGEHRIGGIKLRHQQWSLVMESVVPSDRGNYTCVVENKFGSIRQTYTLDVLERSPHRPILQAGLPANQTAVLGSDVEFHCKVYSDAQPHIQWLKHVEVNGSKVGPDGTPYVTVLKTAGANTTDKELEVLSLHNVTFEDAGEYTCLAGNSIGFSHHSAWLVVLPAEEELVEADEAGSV
# assay.procedure: BLI Octet RED96, antibody on anti-hIgG Fc tip
Hi! Could you send only the number? It should be in nM, unit omitted.

[
  {
    "binder": "Vk6 combined with the VH of Ab15 (antibody, V domains shown, captured on anti-human IgG Fc tips) VH: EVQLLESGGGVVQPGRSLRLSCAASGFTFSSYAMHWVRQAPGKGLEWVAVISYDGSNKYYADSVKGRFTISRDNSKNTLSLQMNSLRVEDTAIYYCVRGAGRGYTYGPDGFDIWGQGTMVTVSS VL: DIVMTQTPLSLSVTPGQPASISCKSSQSLLHSDGKTYLYWYLQKPGQPPQLLIYELSNRFSGVPDRFSGSGSGTDFTLKISRVEAEDVGVYYCMQYIEAPLTFGGGTKVEIK",
    "value.observed": 12.9
  },
  {
    "binder": "Vk7 combined with the VH of Ab15 (antibody, V domains shown, captured on anti-human IgG Fc tips) VH: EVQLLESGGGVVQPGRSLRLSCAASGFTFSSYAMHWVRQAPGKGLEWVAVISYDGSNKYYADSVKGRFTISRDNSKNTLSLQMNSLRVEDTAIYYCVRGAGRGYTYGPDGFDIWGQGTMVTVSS VL: DIVMTQSPLSLPVTPGEPASISCKSSQSLLHSDGKTYLYWYLQKPGQPPQLLIYELSNRFSGVPDRFSGSGSGTDFTLKISRVEAEDVGVYYCMQYIEAPLTFGGGTKVEIK",
    "value.observed": 8.7
  }
]

Please find the next binder below.
INPUT: Reported Kd for Ab92 (antibody, human IgG2, kappa, V domains shown, format in the assays not spelled out) VH: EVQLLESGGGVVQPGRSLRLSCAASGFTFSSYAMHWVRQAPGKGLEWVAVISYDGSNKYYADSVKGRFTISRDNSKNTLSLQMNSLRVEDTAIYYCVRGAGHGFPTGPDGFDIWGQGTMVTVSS VL: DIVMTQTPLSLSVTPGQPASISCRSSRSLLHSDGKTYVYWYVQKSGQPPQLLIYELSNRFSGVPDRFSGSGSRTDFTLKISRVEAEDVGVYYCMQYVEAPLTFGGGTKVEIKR : what is it?
OUTPUT: 37.6
